- System: α2-GABAA receptor
- EXPERIMENT_NOTES: Ligand-binding assay, radiolabeled flumazenil competition, spinal cord membranes
- Parameters: species or system rat
- TEST_SETTINGS: 10^−5M; rat spinal cord membranes, radiolabeled flumazenil 1 nM
EXPERIMENTAL_READOUT: Affinity for the α2-subunit of the GABAA receptor, % inhibition
Please don't drop the unit; write it after the number.

Cc1ccc2c(=O)c(-c3ccccc3)cn(CC(=O)N3CC(C)OC(C)C3)c2c1 (centres unmarked) : 55.4%
C=CCN(CC=C)C(=O)Cn1cc(-c2ccccc2)c(=O)c2ccc(C)cc21 : 88.2%
Cc1ccc2c(=O)c(-c3ccccc3)cn(CC(=O)c3cccs3)c2c1 : 89.9%
C=CCN(CC=C)C(=O)Cn1cc(-c2ccc(OC)cc2)c(=O)c2ccc(C)cc21 : 62.0%
Cc1ccc(-c2nc3ccc(C)cn3c2CC(=O)N(C)C)cc1 [zolpidem, reference compound] : 74.1%
COc1ccc(NC(=O)Cn2cc(-c3ccc(OC)cc3)c(=O)c3ccc(C)cc32)cc1 : 65.1%
Cc1ccc2c(=O)c(-c3ccccc3)cn(CC(=O)N3CCCCC3)c2c1 : 13.3%

Proceeding to the next compound to report its Affinity for the α2-subunit of the GABAA receptor, % inhibition.
# input Query for α2-GABAA receptor: what Affinity for the α2-subunit of the GABAA receptor, % inhibition does the record show for CCCN(CC1CC1)C(=O)Cn1cc(-c2ccccc2)c(=O)c2ccc(C)cc21 ?
# output 93.4%
